What melting point was measured for each of the following?
Give bare numbers, in °C.

Reference set (3 entries):
**Q:** Annotate the compound `COCc1nc(Nc2ccc(C#N)cc2)nc(Nc2c(C)cc(/C=C/C#N)cc2C)c1-c1cnccc1OC` with its measured melting point.
**A:** 120

**Q:** Specify melting point for `COCc1nc(Nc2ccc(C#N)cc2)nc(Nc2c(C)cc(/C=C/C#N)cc2C)c1-c1ccco1` and stop.
**A:** 105

**Q:** Please indicate melting point recorded for `C=C(OCC)c1c(COC)nc(Nc2ccc(C#N)cc2)nc1Nc1ccc(/C=C/C#N)cc1`
**A:** 102

For the 5 compounds below, give their melting point values.
1. COCc1nc(Nc2ccc(C#N)cc2)nc(Nc2c(C)cc(/C=C/C#N)cc2C)c1-c1cccnc1
2. COCc1nc(Nc2ccc(C#N)cc2)nc(Nc2c(C)cc(/C=C/C#N)cc2C)c1-c1ccsc1
3. COCc1nc(Nc2ccc(C#N)cc2)nc(Nc2c(C)cc(/C=C/C#N)cc2C)c1-c1cccs1
4. COCc1nc(Nc2ccc(C#N)cc2)nc(Nc2c(C)cc(/C=C/C#N)cc2C)c1-c1ccncc1
5. COCc1nc(Nc2ccc(C#N)cc2)nc(Nc2ccc(/C=C/C#N)cc2)c1C#Cc1cccnc1

**A:**
1. 216
2. 125
3. 130
4. 172
5. 210

---

- Test system: HIV strain IIIB (wild type)
- TEST PROTOCOL: microbe, parasite or virus in culture
- SETTINGS: strain IIIB; CC50 in mock-infected MT4 CMV-EGFP cells
Exercise: for every item that follows, state its recorded pSI (IIIB) (-log SI; SI = ratio of CC50 to EC50).

Past entries and their recorded results:
**Q:** Name the recorded pSI (IIIB) (-log SI; SI = ratio of CC50 to EC50) of COCc1nc(Nc2ccc(C#N)cc2)nc(Nc2c(C)cc(/C=C/C#N)cc2C)c1-c1ccncc1 [Compound 3] , assay system HIV strain IIIB (wild type).
**A:** >3.88

**Q:** Give HIV strain IIIB (wild type) pSI (IIIB) (-log SI; SI = ratio of CC50 to EC50) for the following compound: COCc1nc(Nc2ccc(C#N)cc2)nc(Nc2c(C)cc(C=CC#N)cc2C)c1C(=O)NCCN1CCOCC1 (mixture of isomers) [Compound 14]
**A:** 3.70

**Q:** Name the value of pSI (IIIB) (-log SI; SI = ratio of CC50 to EC50) reported for COCc1nc(Nc2ccc(C#N)cc2)nc(Nc2c(C)cc(/C=C/C#N)cc2C)c1-c1ccoc1 [Compound 7] when tested on HIV strain IIIB (wild type).
**A:** 3.75

Note: attention shifts to another entry.
**Q:** Report pSI (IIIB) (-log SI; SI = ratio of CC50 to EC50) under test system HIV strain IIIB (wild type) for COCc1nc(Nc2ccc(C#N)cc2)nc(Nc2c(C)cc(/C=C/C#N)cc2C)c1-c1ccsc1 [Compound 5] .
**A:** >3.76

---

Please respond with reported pSI (IIIB) (-log SI; SI = ratio of CC50 to EC50) for every item in the list.
- System: HIV strain IIIB (wild type)
- TEST PROTOCOL: microbe, parasite or virus in culture
- SETTINGS: strain IIIB; CC50 in mock-infected MT4 CMV-EGFP cells
Give bare numbers.

Worked examples follow.
**Q:** Provide only the value of recorded pSI (IIIB) (-log SI; SI = ratio of CC50 to EC50) for COCc1nc(Nc2ccc(C#N)cc2)nc(Nc2c(C)cc(C=CC#N)cc2C)c1C(=O)N(C)OC (mixture of isomers)
**A:** 4.02

**Q:** Determine its reported pSI (IIIB) (-log SI; SI = ratio of CC50 to EC50): `COCc1nc(Nc2ccc(C#N)cc2)nc(Nc2c(C)cc(/C=C/C#N)cc2C)c1-c1cccs1`
**A:** 3.73

---
**Q:** Indicate its recorded pSI (IIIB) (-log SI; SI = ratio of CC50 to EC50); the compound in question is `COCc1nc(Nc2ccc(C#N)cc2)nc(Nc2c(C)cc(/C=C/C#N)cc2C)c1C(=O)NCc1ccccn1`
**A:** 3.81
